Answer each item with its documented hERG current change (%, negative = inhibition) at 10uM.
# experimental.system: human ether-à-go-go-related gene (hERG) potassium channel (human);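 note: peak tail current of the secondary pulse compared with the same well before compound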
# Sequence (Q12809 whole entry, looked up): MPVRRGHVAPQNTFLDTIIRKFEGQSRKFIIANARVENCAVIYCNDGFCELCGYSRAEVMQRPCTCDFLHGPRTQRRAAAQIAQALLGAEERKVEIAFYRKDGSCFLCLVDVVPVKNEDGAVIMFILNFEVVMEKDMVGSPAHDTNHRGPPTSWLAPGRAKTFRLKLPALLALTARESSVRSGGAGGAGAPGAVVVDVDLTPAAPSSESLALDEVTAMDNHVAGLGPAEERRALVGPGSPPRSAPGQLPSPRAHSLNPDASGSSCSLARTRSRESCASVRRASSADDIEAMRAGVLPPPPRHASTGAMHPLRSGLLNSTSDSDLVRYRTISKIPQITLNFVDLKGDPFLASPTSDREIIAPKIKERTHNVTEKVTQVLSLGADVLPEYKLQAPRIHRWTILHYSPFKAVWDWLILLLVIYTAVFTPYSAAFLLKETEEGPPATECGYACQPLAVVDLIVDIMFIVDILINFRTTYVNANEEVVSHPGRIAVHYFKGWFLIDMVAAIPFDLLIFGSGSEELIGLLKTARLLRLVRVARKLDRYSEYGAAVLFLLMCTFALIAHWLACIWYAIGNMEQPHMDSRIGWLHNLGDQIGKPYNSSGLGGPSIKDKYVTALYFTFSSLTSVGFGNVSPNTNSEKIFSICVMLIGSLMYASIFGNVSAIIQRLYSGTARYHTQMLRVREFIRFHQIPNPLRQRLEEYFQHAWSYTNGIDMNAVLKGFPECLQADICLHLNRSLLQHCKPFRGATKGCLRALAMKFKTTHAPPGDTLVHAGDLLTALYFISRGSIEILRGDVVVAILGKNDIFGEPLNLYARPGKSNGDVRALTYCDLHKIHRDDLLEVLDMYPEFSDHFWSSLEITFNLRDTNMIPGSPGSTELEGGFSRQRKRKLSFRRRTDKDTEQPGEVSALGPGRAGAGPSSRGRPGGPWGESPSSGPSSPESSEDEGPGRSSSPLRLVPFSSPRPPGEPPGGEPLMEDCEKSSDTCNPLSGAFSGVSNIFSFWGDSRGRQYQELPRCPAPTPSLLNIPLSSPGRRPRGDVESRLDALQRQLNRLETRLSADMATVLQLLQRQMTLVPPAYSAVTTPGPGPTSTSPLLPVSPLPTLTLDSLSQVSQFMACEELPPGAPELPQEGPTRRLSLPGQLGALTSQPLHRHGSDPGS
# measurement.description: primary screen, population patch clamp on CHO cells stably expressing hERG; higher = less effect of the substance
In all, about 310,000 compounds went through this assay and about 14,000 (4.5%) showed an effect of 50% or more. The effect is printed as a negative number. This is one part of a sample in which strong results are shown more often than they occur.
Provide the reading as a plain figure in %.

Request: GET /values?readout=hERG current change (%, negative = inhibition) at 10uM&item= `O=S(=O)(Nc1cccc2cn[nH]c12)c1ccc(F)cc1`
Result: -5.83

Request: GET /values?readout=hERG current change (%, negative = inhibition) at 10uM&item= Cn1ccnc1C(=O)C1CCCN(Cc2cn[nH]c2-c2ccc(-c3ccccc3)cc2)C1 (stereo not shown)
Result: -67.9

Request: GET /values?readout=hERG current change (%, negative = inhibition) at 10uM&item= `C[C@H](NC(=O)c1cc2cc(Cl)ccc2n1C)C(=O)N1CCC[C@H]1C(=O)O`
Result: 13.7

Request: GET /values?readout=hERG current change (%, negative = inhibition) at 10uM&item= `O=C1CC2(CCN(C(=O)c3ccc(Br)cc3)CC2)Oc2ccccc21`
Result: -73.5

Request: GET /values?readout=hERG current change (%, negative = inhibition) at 10uM&item= `O=C1CC2(CCN(C(=O)c3cccc(Cl)c3)CC2)Oc2ccccc21`
Result: -78.5

Request: GET /values?readout=hERG current change (%, negative = inhibition) at 10uM&item= `Cc1ccc2nc(Cl)c3cc(C(=O)NCCCN4CCCC4)sc3c2c1`
Result: -10.3

Request: GET /values?readout=hERG current change (%, negative = inhibition) at 10uM&item= `COc1ccc(CCNC(=O)NCCc2c[nH]c3ccccc23)cc1OC`
Result: -3.31

Request: GET /values?readout=hERG current change (%, negative = inhibition) at 10uM&item= `CCC(=O)Oc1ccc(C(=O)Nc2ccccc2C(=O)NCC(C)C)cc1`
Result: 15.6

Request: GET /values?readout=hERG current change (%, negative = inhibition) at 10uM&item= COc1ccc(C(=O)C2CCCN(Cc3ccc(F)cc3F)C2)cc1F (stereo not shown)
Result: -29.8

Request: GET /values?readout=hERG current change (%, negative = inhibition) at 10uM&item= `CC1CCN(CCCNC(=O)c2cc3c(Cl)nc4ccccc4c3s2)CC1`
Result: -66.2

Request: GET /values?readout=hERG current change (%, negative = inhibition) at 10uM&item= `COc1ccc(OC)c(/C=N/NC(=O)CCc2n[nH]c(=O)[nH]c2=O)c1`
Result: 4.8

Request: GET /values?readout=hERG current change (%, negative = inhibition) at 10uM&item= `N#CC(C#N)=C1C=CC=CN1/C(=C\c1ccccc1Cl)C(=O)c1ccccc1`
Result: 8.73

Request: GET /values?readout=hERG current change (%, negative = inhibition) at 10uM&item= `CCOC(=O)c1ccc(NC(=O)CN2C(=O)NC3(CCCCCCC3)C2=O)cc1`
Result: -7.35

Request: GET /values?readout=hERG current change (%, negative = inhibition) at 10uM&item= CC1CCCN(CCCNC(=O)c2cc3c(Cl)nc4ccccc4c3s2)C1 (stereo not shown)
Result: -55.6

Request: GET /values?readout=hERG current change (%, negative = inhibition) at 10uM&item= Cn1cc(CN2CCCC(C(=O)c3nccn3C)C2)c(-c2cccc(Cl)c2)n1 (stereo not shown)
Result: -31.1

Request: GET /values?readout=hERG current change (%, negative = inhibition) at 10uM&item= `COc1ccccc1/C=C/C=N/NC(=O)c1cnccn1`
Result: 13.5

Request: GET /values?readout=hERG current change (%, negative = inhibition) at 10uM&item= COc1ccc(/C=N/NC(=O)CCN2CCCCC2c2cccnc2)cc1Cn1cc([N+](=O)[O-])cn1 (stereo not shown)
Result: -30.7

Request: GET /values?readout=hERG current change (%, negative = inhibition) at 10uM&item= CCC1CCCCN1CCCNC(=O)c1cc2c(Cl)nc3ccccc3c2s1 (stereo not shown)
Result: -76.6

Request: GET /values?readout=hERG current change (%, negative = inhibition) at 10uM&item= `O=C(COC(=O)c1ccc(F)c(S(=O)(=O)N2CCOCC2)c1)c1ccc(Cl)cc1`
Result: -31.1

Request: GET /values?readout=hERG current change (%, negative = inhibition) at 10uM&item= `CCOC(=O)c1c(NC(=O)c2ccc(Cl)cc2)csc1C`
Result: -0.689

Request: GET /values?readout=hERG current change (%, negative = inhibition) at 10uM&item= CC(NC(=O)CCCn1cc([N+](=O)[O-])cn1)c1ccccc1 (stereo not shown)
Result: -3.6

Request: GET /values?readout=hERG current change (%, negative = inhibition) at 10uM&item= `O=C(c1cccc(Br)c1)N1CCCC1`
Result: 0.701

Request: GET /values?readout=hERG current change (%, negative = inhibition) at 10uM&item= `CS(=O)(=O)c1nc(-c2ccccc2)cc(-c2ccccc2)c1C#N`
Result: 8.33

Request: GET /values?readout=hERG current change (%, negative = inhibition) at 10uM&item= COc1ccc(C(=O)C2CCCN(C(=O)c3ccc(F)cc3)C2)cc1OC (stereo not shown)
Result: -3.95

Request: GET /values?readout=hERG current change (%, negative = inhibition) at 10uM&item= COc1ccc(C(=O)C2CCCN(Cc3cn[nH]c3-c3ccccc3)C2)cc1OC (stereo not shown)
Result: -74

Request: GET /values?readout=hERG current change (%, negative = inhibition) at 10uM&item= `Cc1nc(SCC(=O)Nc2cccc(Cl)c2)n[nH]1`
Result: 6.87

Request: GET /values?readout=hERG current change (%, negative = inhibition) at 10uM&item= `COc1cc(C(=O)Nc2ccc3c(c2)ncn3C(C)(C)C)cc(OC)c1OC`
Result: 9.04

Request: GET /values?readout=hERG current change (%, negative = inhibition) at 10uM&item= COc1ccc(C(=O)C2CCCN(Cc3cn[nH]c3-c3ccc(F)cc3)C2)cc1OC (stereo not shown)
Result: -66.5

Request: GET /values?readout=hERG current change (%, negative = inhibition) at 10uM&item= `O=C1CC2(CCN(C(=O)c3cccc(Br)c3)CC2)Oc2ccccc21`
Result: -85.5

Request: GET /values?readout=hERG current change (%, negative = inhibition) at 10uM&item= `COC(=O)c1cccc(NC(=S)N2CCN(c3ccccc3F)CC2)c1`
Result: 5.71

Request: GET /values?readout=hERG current change (%, negative = inhibition) at 10uM&item= `O=C(NCCCN1CCCC1)c1cc2c(Cl)nc3ccccc3c2s1`
Result: -13.9

Request: GET /values?readout=hERG current change (%, negative = inhibition) at 10uM&item= `COc1ccc(CCNC(=O)COC(=O)C2CCCCC2)cc1`
Result: 7.11

Request: GET /values?readout=hERG current change (%, negative = inhibition) at 10uM&item= `N#CC(C#N)=C1C=CC=CN1/C(=C\c1ccco1)C(=O)c1ccc(-c2ccccc2)cc1`
Result: 3.14

Request: GET /values?readout=hERG current change (%, negative = inhibition) at 10uM&item= `COc1cc(NC(=O)CSCc2ccccc2)c(C(=O)O)cc1OC`
Result: 11.2

Request: GET /values?readout=hERG current change (%, negative = inhibition) at 10uM&item= CCOC(=O)CN(C(=O)CNC(=O)c1ccco1)C(C(=O)NC1CCCCC1)c1cccnc1 (stereo not shown)
Result: 12.2

Request: GET /values?readout=hERG current change (%, negative = inhibition) at 10uM&item= Cc1cccc(C)c1OC1(c2ccccc2)OC(=O)c2ccccc21 (stereo not shown)
Result: 10.9

Request: GET /values?readout=hERG current change (%, negative = inhibition) at 10uM&item= `CC(=O)Cc1c(C(=O)O)c(C)nn1-c1ccccc1`
Result: 21.5

Request: GET /values?readout=hERG current change (%, negative = inhibition) at 10uM&item= `CC1CCN(c2ccc(S(=O)(=O)NC3=NCCCCC3)cc2[N+](=O)[O-])CC1`
Result: -11.2

Request: GET /values?readout=hERG current change (%, negative = inhibition) at 10uM&item= `CCCn1c(=O)c2sccc2n2c(CCCC(=O)NCc3cccnc3)nnc12`
Result: 19.2

Request: GET /values?readout=hERG current change (%, negative = inhibition) at 10uM&item= `N#CC(C#N)=C1C=CC=CN1/C(=C\c1ccco1)C(=O)c1ccccc1`
Result: -57.8
